biological target: human PD-L1 (human) (UniProt Q9NZQ7); experiment: flow cytometry, CHO cells expressing huPD-L1
Sequence (Q9NZQ7 19-290): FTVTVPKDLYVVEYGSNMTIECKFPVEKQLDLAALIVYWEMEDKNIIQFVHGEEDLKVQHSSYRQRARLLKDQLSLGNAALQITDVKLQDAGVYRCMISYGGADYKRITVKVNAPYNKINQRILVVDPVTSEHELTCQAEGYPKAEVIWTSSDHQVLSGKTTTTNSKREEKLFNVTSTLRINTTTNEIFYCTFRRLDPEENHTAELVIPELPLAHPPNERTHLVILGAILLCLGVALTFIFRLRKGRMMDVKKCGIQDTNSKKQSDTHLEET
Item-by-item account of MFI at 33.3 nM
MEASURED ATTRIBUTE: MFI at 33.3 nM (MFI)

1) variant CD80 IgV-Fc V22A/E23D/Q33L/E35D/M47V (Fc fusion) VIHVTKEVKEVATLSCGHNVSADELAQTRIYWLKDKKMVLTMMSGDVNIWPEYKNRTIFDITNNLSIVILALRPSDEGTYECVVLKYEKDAFKREHLAEVTLSVKAD    75500
2) variant CD80 IgV-Fc M47L (Fc fusion) VIHVTKEVKEVATLSCGHNVSVEELAQTRIYWQKEKKMVLTMMSGDLNIWPEYKNRTIFDITNNLSIVILALRPSDEGTYECVVLKYEKDAFKREHLAEVTLSVKAD    1900
3) variant CD80 IgV-Fc E35D/M47V/N48K/V68M (Fc fusion) VIHVTKEVKEVATLSCGHNVSVEELAQTRIYWQKDKKMVLTMMSGDVKIWPEYKNRTIFDITNNLSIMILALRPSDEGTYECVVLKYEKDAFKREHLAEVTLSVKAD    23500
4) variant CD80 IgV-Fc Q33L/E35D/T41S/M43I (Fc fusion) VIHVTKEVKEVATLSCGHNVSVEELAQTRIYWLKDKKMVLSMISGDMNIWPEYKNRTIFDITNNLSIVILALRPSDEGTYECVVLKYEKDAFKREHLAEVTLSVKAD    44900
5) variant CD80 IgV-Fc H18L/V22A/E35D/M47L/N48T/L85Q (Fc fusion) VIHVTKEVKEVATLSCGLNVSAEELAQTRIYWQKDKKMVLTMMSGDLTIWPEYKNRTIFDITNNLSIVILALRPSDEGTYECVVQKYEKDAFKREHLAEVTLSVKAD    98100
6) variant CD80 IgV-Fc E35D/D46E/M47V/V68M/D90G/K93E (Fc fusion) VIHVTKEVKEVATLSCGHNVSVEELAQTRIYWQKDKKMVLTMMSGEVNIWPEYKNRTIFDITNNLSIMILALRPSDEGTYECVVLKYEKGAFEREHLAEVTLSVKAD    71900
7) variant CD80 IgV-Fc E35D/D46V/M47L/L85Q (Fc fusion) VIHVTKEVKEVATLSCGHNVSVEELAQTRIYWQKDKKMVLTMMSGVLNIWPEYKNRTIFDITNNLSIVILALRPSDEGTYECVVQKYEKDAFKREHLAEVTLSVKAD    7520
8) variant CD80 IgV-Fc Q33L/E35D/M47L/V68M/L85Q/E88D (Fc fusion) VIHVTKEVKEVATLSCGHNVSVEELAQTRIYWLKDKKMVLTMMSGDLNIWPEYKNRTIFDITNNLSIMILALRPSDEGTYECVVQKYDKDAFKREHLAEVTLSVKAD    126000
